- systemUnderTest: Human immunodeficiency virus type 1 integrase (Human immunodeficiency virus 1, UniProt Q7ZJM1)
- Sequence (Q7ZJM1 whole entry): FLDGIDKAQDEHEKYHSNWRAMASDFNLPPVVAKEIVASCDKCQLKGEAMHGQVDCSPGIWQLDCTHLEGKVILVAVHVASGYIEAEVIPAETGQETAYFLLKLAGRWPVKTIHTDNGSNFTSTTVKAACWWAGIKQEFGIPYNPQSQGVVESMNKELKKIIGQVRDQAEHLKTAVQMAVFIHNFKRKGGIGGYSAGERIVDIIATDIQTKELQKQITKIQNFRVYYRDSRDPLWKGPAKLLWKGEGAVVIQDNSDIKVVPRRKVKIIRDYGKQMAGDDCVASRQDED
- measurementNotes: Inhibition of recombinant HIV1 integrase strand transfer activity in presence of magnesium
pIC50: −log10 of the molar value.
measurementName: pIC50

Past entries and their recorded results:
>  <itemSmiles>
O=C(NNC(=O)c1cccc(O)c1O)c1cccc(O)c1O

>  <measurementName>
pIC50

>  <val>
5.80

$$$$
>  <itemSmiles>
O=C(NN1Cc2ccc(O)c(O)c2C1=O)c1ccccc1O

>  <measurementName>
pIC50

>  <val>
3.53

$$$$
>  <itemSmiles>
O=C1c2c(ccc(O)c2O)CN1N1C(=O)c2ccc(F)cc2C1=O

>  <measurementName>
pIC50

>  <val>
4.28

$$$$
>  <itemSmiles>
O=C(NNC(=O)c1cccc(O)c1O)c1cc2ccccc2cc1O

>  <measurementName>
pIC50

>  <val>
4.49

$$$$

1 = O=C1c2c(ccc(O)c2O)CN1CCc1ccccc1
2 = O=C1c2c(ccc(O)c2O)CN1Cc1cccc(CBr)c1
3 = O=C(NCCNC(=O)c1cccc(O)c1O)c1cccc(O)c1O
4 = O=C1c2c(ccc(O)c2O)CN1N(S(=O)(=O)c1ccc(O)c(O)c1)S(=O)(=O)c1ccc(O)c(O)c1
5 = O=C(NN1Cc2ccc(O)c(O)c2C1=O)c1ccc(F)cc1
Request: Would you mind ranking these compounds by ascending pIC50? To answer, arrange all of the labels according to the requested order.
Response: 5, 3, 1, 2, 4
(5: 3.77, 3: 4.30, 1: 4.55, 2: 4.89, 4: 6.68)

A = O=C1c2c(ccc(O)c2O)CN1/N=C/c1cccc(O)c1O
B = O=C(NCCCNC(=O)c1cccc(O)c1O)c1cccc(O)c1O
Request: Look at A and B . Which one has the lower recorded pIC50 number? In your reply, give the label of the chosen option.
Response: A
(A: 4.27, B: 4.51)

----------
- systemUnderTest: UniProt Q7ZJM1
- measurementNotes: Inhibition of recombinant HIV1 integrase strand transfer activity in presence of magnesium
pIC50: −log10 of the molar value.
measurementName: pIC50

>  <itemSmiles>
O=C1c2c(ccc(O)c2O)CN1N1Cc2ccc(O)c(O)c2C1=O

>  <measurementName>
pIC50

>  <val>
4.39

$$$$

I = O=C1c2c(ccc(O)c2O)CN1N1C(=O)c2cc(O)c(O)cc2C1=O
II = O=C(NN1Cc2ccc(O)c(O)c2C1=O)c1ccccc1
Request: // max by pIC50 over [ I , II ] In your reply, give the label of the chosen option.
Response: I
(I: 6.09, II: 3.89)

----------
Form field: IC50 (one value per entry).
- systemUnderTest: Human immunodeficiency virus type 1 integrase (Human immunodeficiency virus 1)
- measurementNotes: Inhibition of recombinant HIV1 integrase-mediated 3'-processing activity in presence of magnesium

Past entries and their recorded results:
>  <itemSmiles>
O=C(NN1Cc2ccc(O)c(O)c2C1=O)c1ccccc1O

>  <IC50>
> 333 µM

$$$$
>  <itemSmiles>
COc1cccc(C(=O)NCc2ccc(F)cc2)c1O

>  <IC50>
> 333 µM

$$$$
>  <itemSmiles>
O=C1c2c(ccc(O)c2O)CN1Cc1cccc2ccccc12

>  <IC50>
61 µM

$$$$

Request: Consider the compound COc1cccc(/C=N/NC(=O)c2cccc(O)c2O)c1OC and give its measured IC50.
Response: 112 µM

Request: Consider the compound NNC(=O)c1cccc(O)c1O and give its measured IC50.
Response: > 333 µM

Request: Consider the compound O=C1c2c(ccc(O)c2O)CN1N1C(=O)c2ccccc2C1=O and give its measured IC50.
Response: > 333 µM

Request: Consider the compound COc1cccc(C(=O)NN)c1O and give its measured IC50.
Response: > 333 µM

Request: Consider the compound O=C(NCCNC(=O)c1cccc(O)c1O)c1cccc(O)c1O and give its measured IC50.
Response: 85 µM

Request: Consider the compound O=C1c2c(ccc(O)c2O)CN1Cc1ccccc1 and give its measured IC50.
Response: > 333 µM

Request: Consider the compound O=C1c2c(ccc(O)c2O)CN1Cc1ccc(F)c(Cl)c1 and give its measured IC50.
Response: 13 µM

Request: Consider the compound O=C(NN1Cc2ccc(O)c(O)c2C1=O)c1ccc(F)cc1 and give its measured IC50.
Response: > 333 µM

Request: Consider the compound O=C(NNC(=O)c1ccccc1O)c1ccccc1O and give its measured IC50.
Response: > 333 µM

Request: Consider the compound O=C(NNC(=O)c1cccc(O)c1O)c1cccnc1 and give its measured IC50.
Response: > 333 µM

Request: Consider the compound O=C1c2c(ccc(O)c2O)CN1CCc1ccccc1 and give its measured IC50.
Response: > 333 µM

Request: Consider the compound O=C(NCCCNC(=O)c1cccc(O)c1O)c1cccc(O)c1O and give its measured IC50.
Response: 33 µM

Request: Consider the compound O=C(NN1Cc2ccc(O)c(O)c2C1=O)c1cccc(O)c1O and give its measured IC50.
Response: > 333 µM

Request: Consider the compound O=C(NNC(=O)c1cccc(O)c1O)c1ccccc1O and give its measured IC50.
Response: > 333 µM

Request: Consider the compound COc1cccc(C(=O)NNC(=O)c2cccnc2)c1O and give its measured IC50.
Response: > 333 µM

Request: Consider the compound COc1cccc(C(=O)NNC(=O)c2cccc(OC)c2O)c1O and give its measured IC50.
Response: 245 µM

Request: Consider the compound O=C1c2c(ccc(O)c2O)CN1N1C(=O)c2ccc(O)c(O)c2C1=O and give its measured IC50.
Response: 78 µM

Request: Consider the compound O=C1c2c(ccc(O)c2O)CN1NS(=O)(=O)c1ccc(F)cc1 and give its measured IC50.
Response: 69 µM

----------
- systemUnderTest: Human immunodeficiency virus type 1 integrase (Human immunodeficiency virus 1)
- measurementNotes: Inhibition of recombinant HIV1 integrase-mediated 3'-processing activity in presence of manganese
pIC50: −log10 of the molar value.
measurementName: pIC50

>  <itemSmiles>
COc1cccc(C(=O)NNC(=O)c2cccc(O)c2O)c1O

>  <pIC50>
4.96

$$$$

1 = O=C(NNC(=O)c1cccc(O)c1O)c1cc2ccccc2cc1O
2 = O=C(N/N=C/c1cccc(O)c1O)c1cccc(O)c1O
Request: // max by pIC50 over [ 1 , 2 ] In your reply, give the label of the chosen option.
Response: 2
(2: 4.96, 1: 4.72)

----------
- systemUnderTest: Human immunodeficiency virus type 1 integrase (Human immunodeficiency virus 1, UniProt Q7ZJM1)
- measurementNotes: Inhibition of recombinant HIV1 integrase-mediated 3'-processing activity in presence of manganese
pIC50: −log10 of the molar value.
measurementName: pIC50

Past entries and their recorded results:
>  <itemSmiles>
O=C(NNC(=O)c1cccc(O)c1O)c1ccccc1O

>  <pIC50>
5.55

$$$$
>  <itemSmiles>
COc1cccc(C(=O)NNC(=O)c2cc3ccccc3cc2O)c1O

>  <pIC50>
4.92

$$$$

A = O=C(NNC(=O)c1cccc(O)c1O)c1cccc(O)c1O
B = COc1cccc(C(=O)NNC(=O)c2cccc(OC)c2O)c1O
Request: Look at A and B . Which one has the lower recorded pIC50 number? In your reply, give the label of the chosen option.
Response: B

----------
- systemUnderTest: UniProt Q7ZJM1
- measurementNotes: Inhibition of recombinant HIV1 integrase strand transfer activity in presence of manganese
pIC50: −log10 of the molar value.
measurementName: pIC50

Past entries and their recorded results:
>  <itemSmiles>
NNC(=O)c1cccc(O)c1O

>  <val>
3.95

$$$$
>  <itemSmiles>
O=C(NNC(=O)c1cccc(O)c1O)c1ccccc1O

>  <val>
6.30

$$$$
>  <itemSmiles>
O=C(N/N=C/c1cccc(O)c1O)c1cccc(O)c1O

>  <val>
5.89

$$$$

P = O=C(NNC(=O)c1cccc(O)c1O)c1cc2ccccc2cc1O
Q = COc1cccc(C(=O)NNC(=O)c2cccc(O)c2O)c1O
Request: Look at P and Q . Which one has the lower recorded pIC50 number? In your reply, give the label of the chosen option.
Response: P
(P: 4.80, Q: 5.05)

----------
- systemUnderTest: UniProt:Q7ZJM1
- measurementNotes: Inhibition of recombinant HIV1 integrase strand transfer activity in presence of magnesium
pIC50: −log10 of the molar value.
measurementName: pIC50

>  <itemSmiles>
O=C1c2c(ccc(O)c2O)CN1Cc1ccc(F)cc1

>  <val>
5.00

$$$$
>  <itemSmiles>
O=C1c2c(ccc(O)c2O)CN1N1C(=O)c2ccc(O)c(O)c2C1=O

>  <val>
6.22

$$$$
>  <itemSmiles>
O=C1c2c(ccc(O)c2O)CN1N1Cc2ccc(O)c(O)c2S1(=O)=O

>  <val>
5.92

$$$$
>  <itemSmiles>
O=C1c2c(ccc(O)c2O)CN1NS(=O)(=O)c1ccc(F)cc1

>  <val>
4.68

$$$$
>  <itemSmiles>
O=C(N/N=C/c1cccc(O)c1O)c1cccc(O)c1O

>  <val>
4.27

$$$$

P = O=C1c2c(ccc(O)c2O)CN1N1C(=O)c2cccc(O)c2C1=O
Q = COc1cccc(C(=O)NNC(=O)c2cccc(OC)c2O)c1O
Request: // max by pIC50 over [ P , Q ] In your reply, give the label of the chosen option.
Response: P
(P: 4.96, Q: 3.91)

Source of measurements: ChEMBL document CHEMBL1140713
